- TARGET_SYSTEM: hQC (Homo sapiens)
- Sequence (Q16769 29-361): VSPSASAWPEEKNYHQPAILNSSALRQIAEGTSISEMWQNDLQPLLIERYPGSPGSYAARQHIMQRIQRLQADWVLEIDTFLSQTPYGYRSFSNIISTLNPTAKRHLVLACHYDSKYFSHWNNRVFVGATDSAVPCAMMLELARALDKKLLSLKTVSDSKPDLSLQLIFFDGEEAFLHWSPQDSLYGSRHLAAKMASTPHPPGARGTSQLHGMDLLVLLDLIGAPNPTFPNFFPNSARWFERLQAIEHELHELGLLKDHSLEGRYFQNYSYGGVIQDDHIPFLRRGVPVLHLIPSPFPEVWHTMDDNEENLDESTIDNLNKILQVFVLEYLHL
- TEST_PROTOCOL: Inhibitor assay for glutaminyl cyclase activity (fluorometric, H-Gln-βNA / H-Gln-AMC)
- Type: biochemical
- DETAILS: read-out: IC50

COMPOUND | IC50
CC(C)C1=C(O)C(=O)N(CCCn2ccnc2)C1c1ccccc1F (centres unmarked) [Compound 74] | 2200 nM
CC(C)CC(=O)C1=C(O)C(=O)N(c2ccc3[nH]cnc3c2)C1c1ccc2cccc(O)c2n1 (centres unmarked) [Compound 327] | 4 nM
O=C1C(O)=C(c2ccccc2)C(c2cccc3cccnc23)N1c1ccc2[nH]cnc2c1 (centres unmarked) [Compound 267] | 7510 nM
CCC/C=C/C1C(c2ccccc2)=C(O)C(=O)N1CCCn1ccnc1 (centres unmarked) [Compound 78] | 40 nM
O=C1C(O)=C(c2cccc(O)c2)C(c2ccc(CO)o2)N1CCCn1ccnc1 (centres unmarked) [Compound 17] | 5800 nM
CCCCCC1=C(O)C(=O)N(CCCn2ccnc2)C1C1=CCCCC1 (centres unmarked) [Compound 201] | 1300 nM
CC1=C(O)C(=O)N(CCCn2ccnc2)C1c1ccc(O)cc1 (centres unmarked) [Compound 52] | 1300 nM
CCCCCC1=C(O)C(=O)N(CCCn2ccnc2)C1c1c[nH]c2ccccc12 (centres unmarked) [Compound 204] | 40 nM
